Entry source: the Human Domainome abundance scans (Beltran et al. 2025)

B1: Glucocorticoid receptor, residues 419 to 494; numbered along this chain, P04150 (parent)
chain: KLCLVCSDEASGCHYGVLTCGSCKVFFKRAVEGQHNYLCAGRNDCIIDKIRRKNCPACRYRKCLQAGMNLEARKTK

Variants of: B1
assay text: abundance fitness (aPCA) (normalised: wild type 0, dead -1); higher = more abundant; growth selection in yeast, the domain comes from the species named
protocol conditions: Homo sapiens
abundance fitness class ranges: low end: < -0.2; middle: ≥ -0.2 and < -0.03; high end: ≥ -0.03

Examples from the recorded data:
G41D    middle
V5G    low end

query: Hey, which category is L64W in, do you know?
result: middle

query: Hey, which category is I50L in, do you know?
result: high end

query: Hey, which category is C55K in, do you know?
result: low end

query: Hey, which category is R51F in, do you know?
result: high end

query: Hey, which category is A66Q in, do you know?
result: middle

query: Hey, which category is C13K in, do you know?
result: high end

query: Hey, which category is C13I in, do you know?
result: high end

query: Hey, which category is G41Y in, do you know?
result: middle

query: Hey, which category is C3Q in, do you know?
result: low end

query: Hey, which category is V17Y in, do you know?
result: low end

query: Hey, which category is S11Y in, do you know?
result: middle

query: Hey, which category is D8I in, do you know?
result: low end

query: Hey, which category is G41W in, do you know?
result: high end

query: Hey, which category is I47L in, do you know?
result: middle

query: Hey, which category is K53A in, do you know?
result: high end
